Readings of remaining at 3 h for the listed molecules
Assay: Chemical stability of the compound in simulated gastric media assessed as compound recovery at pH 1.2 after 3 hrs by HPLC method
Type: physicochemical
Conditions: read-out: Stability
Reply numerically in %, unit not repeated.

Worked set:
CCNC(=O)Nc1sc2ccccc2c1C(=O)N1CCN(C2CCN(C(=O)OC(C)(C)C(F)(F)F)CC2)CC1
100
CCNC(=O)Nc1sc2ccccc2c1C(=O)N1CCN(C2CCN(C(=O)OC(C)(C)CF)CC2)CC1
98

**Query** Could you tell me which remaining at 3 h is on file for `CCNC(=O)Nc1sc2ccccc2c1C(=O)N1CCN(C2CCN(C(=O)OC(C)(C)C)CC2)CC1` ?
**Result** 23

###

Experiment: Metabolic stability in human liver microsomes assessed as compound recovery after 15 mins by LC-MS/MS
Type: ADME, Microsome
Details: read-out: Stability
Readings of remaining at 0.25 h for the listed molecules
Reply numerically in %, unit not repeated.

CCNC(=O)Nc1sc2ccc(C)cc2c1C(=O)N1CCN(C2CCN(C(=O)OC(C)C)CC2)CC1
3
CCNC(=O)Nc1sc2cc(OC)ccc2c1C(=O)N1CCN(C2CCN(C(=O)OC(C)(C)C(F)(F)F)CC2)CC1
29
CCNC(=O)Nc1sc2cnccc2c1C(=O)N1CCN(C2CCN(C(=O)OC(C)(C)C(F)(F)F)CC2)CC1
67
CCNC(=O)Nc1sc2cc(Cl)ccc2c1C(=O)N1CCN(C2CCN(C(=O)OC(C)(C)C(F)(F)F)CC2)CC1
51
CCNC(=O)Nc1sc2cc(C)ccc2c1C(=O)N1CCN(C2CCN(C(=O)OC(C)(C)CF)CC2)CC1
84

Now let's try a different one.
**Query** Could you tell me which remaining at 0.25 h is on file for `CCNC(=O)Nc1sc2cc(C(F)(F)F)ccc2c1C(=O)N1CCN(C2CCN(C(=O)OC(C)(C)C(F)(F)F)CC2)CC1` ?
**Result** 7

###

Test system: HepG2
Assay: Inhibition of fatty acid synthesis in human HepG2 cells assessed as [14C]acetate incorporation after 2 hrs by liquid scintillation counter
Assay type: functional, cell-based
Settings: HepG2, 2 h
IC50 strictly under 300 nM means Condition met; at 300 nM or over means Condition not met.

Take a look at these entries with their results.
CCNC(=O)Nc1sc2ccccc2c1C(=O)N1CCN(C2CCN(C(=O)C(C)(C)C)CC2)CC1
Condition not met
CCNC(=O)Nc1sc2ccccc2c1C(=O)N1CCN(C2CCN(C(=O)OC3CCCC3)CC2)CC1
Condition not met
CCNC(=O)Nc1sc2ccccc2c1C(=O)N1CCN(C2CCN(C(=O)OC3CCCCC3)CC2)CC1
Condition not met
CCNC(=O)Nc1sc2ncccc2c1C(=O)N1CCN(C2CCN(C(=O)OC(C)(C)C(F)(F)F)CC2)CC1
Condition met
CCNC(=O)Nc1sc2cc(C)ccc2c1C(=O)N1CCN(C2CCN(C(=O)OC(C)(C)CF)CC2)CC1
Condition met

**Query** Below 300 nM on IC50? Entry `CCNC(=O)Nc1sc2ccccc2c1C(=O)N1CCN(C2CCN(C(=O)OC(C)(C)C)CC2)CC1`
**Result** Condition met

**Query** Below 300 nM on IC50? Entry `CCNC(=O)Nc1sc2ccccc2c1C(=O)N1CCN(C2CCN(C(=O)OC(C)C)CC2)CC1`
**Result** Condition met

**Query** Below 300 nM on IC50? Entry `CCNC(=O)Nc1sc2cc(C)ccc2c1C(=O)N1CCN(C2CCN(C(=O)OC(C)C)CC2)CC1`
**Result** Condition not met

###

Readings of remaining at 0.25 h for the listed compounds
Assay: Metabolic stability in human liver microsomes assessed as compound recovery after 15 mins by LC-MS/MS
Type: ADME, Microsome
Conditions: read-out: Stability

Worked set:
CCNC(=O)Nc1sc2ccccc2c1C(=O)N1CCN(C2CCN(C(=O)OC(C)(C)C(F)(F)F)CC2)CC1
5%
CCNC(=O)Nc1sc2ccccc2c1C(=O)N1CCN(C2CCN(C(=O)OC(C)(C)CF)CC2)CC1
3%
CCNC(=O)Nc1sc2ncccc2c1C(=O)N1CCN(C2CCN(C(=O)OC(C)(C)C(F)(F)F)CC2)CC1
3%
CCNC(=O)Nc1sc2cccnc2c1C(=O)N1CCN(C2CCN(C(=O)OC(C)(C)C(F)(F)F)CC2)CC1
13%
CCNC(=O)Nc1sc2cc(C)ccc2c1C(=O)N1CCN(C2CCN(C(=O)OC(C)C)CC2)CC1
77%

**Query** Could you tell me which remaining at 0.25 h is on file for `CCNC(=O)Nc1sc2cc(F)ccc2c1C(=O)N1CCN(C2CCN(C(=O)OC(C)(C)C(F)(F)F)CC2)CC1` ?
**Result** 17%

**Query** Could you tell me which remaining at 0.25 h is on file for `CCNC(=O)Nc1sc2ccccc2c1C(=O)N1CCN(C2CCN(C(=O)OC(C)C)CC2)CC1` ?
**Result** 3%

###

System: HepG2
Test: Inhibition of fatty acid synthesis in human HepG2 cells assessed as [14C]acetate incorporation after 2 hrs by liquid scintillation counter
Assay type: functional, cell-based
Details: HepG2, 2 h
MEASURED_PROPERTY: IC50 (nM)
Reply numerically in nM, unit not repeated.

Worked set:
CC(=O)N1CCC(C(=O)N2CCC(N3CCN(C(=O)c4cc(-c5ccc(C)cc5)nc(-c5ccc6[nH]c(C)c(C)c6c5)c4)CC3)CC2)CC1
294
CCNC(=O)Nc1sc2ccccc2c1C(=O)N1CCN(C2CCN(C(=O)C3CCCCC3)CC2)CC1
146
CCNC(=O)Nc1sc2cc(OC)ccc2c1C(=O)N1CCN(C2CCN(C(=O)OC(C)(C)C(F)(F)F)CC2)CC1
67
CCNC(=O)Nc1sc2ccccc2c1C(=O)N1CCN(C2CCN(C(=O)NC(C)(C)C)CC2)CC1
775
CCNC(=O)Nc1sc2ccccc2c1C(=O)N1CCN(C2CCN(C(=O)OC(C)(C)CF)CC2)CC1
61

**Query** Could you tell me which IC50 is on file for `CCNC(=O)Nc1sc2ccc(C)cc2c1C(=O)N1CCN(C2CCN(C(=O)OC(C)C)CC2)CC1` ?
**Result** 254

**Query** Could you tell me which IC50 is on file for `CCNC(=O)Nc1sc2ccccc2c1C(=O)N1CCN(C2CCN(C(=O)OCC)CC2)CC1` ?
**Result** 228

**Query** Could you tell me which IC50 is on file for `CCNC(=O)Nc1sc2cnccc2c1C(=O)N1CCN(C2CCN(C(=O)OC(C)(C)C(F)(F)F)CC2)CC1` ?
**Result** 152

**Query** Could you tell me which IC50 is on file for `CCNC(=O)Nc1sc2cccnc2c1C(=O)N1CCN(C2CCN(C(=O)OC(C)(C)C(F)(F)F)CC2)CC1` ?
**Result** 49

**Query** Could you tell me which IC50 is on file for `CCNC(=O)Nc1sc2ccccc2c1C(=O)N1CCN(C2CCN(C(=O)OC(C)(C)C(F)(F)F)CC2)CC1` ?
**Result** 81

**Query** Could you tell me which IC50 is on file for `CCNC(=O)Nc1sc2ccccc2c1C(=O)N1CCN(C2CCN(C(=O)C3CCCC3)CC2)CC1.O=C(O)/C=C\C(=O)O` ?
**Result** 309

Hello, the source for this data is ChEMBL document CHEMBL1681752, in case you need it.
